- Test system: NOMO-1
- measurement-context: 72 h
Counter-ions that a name gives are not always drawn.
assay-metric: IC50 (cell viability)

compound	result
O=C(/C=C/c1ccc(O)c(O)c1)OCCc1ccccc1	> 10 µM
CCc1c(C(=O)C(N)=O)c2c(OCC(=O)O)cccc2n1Cc1ccccc1	> 10 µM
Cc1ccc(-c2cc(C(F)(F)F)nn2-c2ccc(S(N)(=O)=O)cc2)cc1	> 10 µM
Cc1cc2c(C(C)C)c(O)c(O)c(C=O)c2c(O)c1-c1c(C)cc2c(C(C)C)c(O)c(O)c(C=O)c2c1O	2.88 µM
O=c1c(-c2ccc(O)cc2)coc2cc(O[C@@H]3O[C@H](CO)[C@@H](O)[C@H](O)[C@H]3O)ccc12	> 10 µM
Cc1cc(C(=O)NNCc2ccccc2)no1	> 10 µM
CC(C)(C)c1ccc(S(=O)(=O)NCc2ccc(C(=O)Nc3cccnc3)cc2)cc1	0.074 µM
CCCCCCCC/C=C\CCCCCCCC(=O)Nc1ccccc1 [Octadec-9-Enoic Acid Phenylamide]	> 10 µM
CCN(CCO)CCCC(C)Nc1ccnc2cc(Cl)ccc12 (centres undefined) [Hydroxychloroquine sulfate]	> 10 µM
